Measured values drawn from ChEMBL document CHEMBL3621163 for this set.

- experimental.system: Protein farnesyltransferase (Homo sapiens, UniProt P49354+P49356)
- assay.notes: Inhibition of recombinant human FTase using FPP/dansyl-GCVLS as substrate at 100 uM measured for 15 mins by fluorimetric analysis relative to control
- Assay type: protein-complex assay
Assign TRUE to entries whose inhibition meets or exceeds 70%; assign FALSE to the rest.

Kindly determine if inhibition recorded for CSCC[C@H](NC(=O)CCn1c2ccccc2c2ccccc21)C(=O)O is above or exactly 70%. TRUE

Here is the next molecule: CSCC[C@H](NC(=O)CCN1c2ccccc2Sc2ccc(Cl)cc21)C(=O)O TRUE

Here is the next molecule: COC(=O)[C@@H](NC(=O)CCN1c2ccccc2Sc2ccccc21)C(C)C FALSE

Here is the next molecule: O=C(CCn1c2ccccc2c2ccccc21)N[C@@H](CS)C(=O)O FALSE

Here is the next molecule: COC(=O)[C@H](CCSC)NC(=O)CCN1c2ccccc2Sc2ccc(Cl)cc21 FALSE

###

- experimental.system: Protein farnesyltransferase (Homo sapiens, UniProt P49354+P49356)
- assay.notes: Inhibition of recombinant human FTase using FPP/dansyl-GCVLS as substrate at 100 uM measured for 15 mins by fluorimetric analysis relative to control
- Format: protein-complex assay
What inhibition was measured for each of the following?
Kindly provide the numeric value in % only, without the unit symbol.

Name the recorded inhibition for CCOC(=O)[C@H](CS)NC(=O)CCn1c2ccccc2c2ccccc21 . 15

Here is the next molecule: O=C(CCN1c2ccccc2Sc2ccccc21)N[C@@H](CO)C(=O)O 94

Here is the next molecule: COC(=O)[C@H](CO)NC(=O)CCn1c2ccccc2c2ccccc21 23

Here is the next molecule: CC(C)[C@H](NC(=O)CCn1c2ccccc2c2ccccc21)C(=O)O 22

Here is the next molecule: O=C(CCN1c2ccccc2Sc2ccccc21)N[C@@H](CS)C(=O)O 92

Here is the next molecule: O=C(CCn1c2ccccc2c2ccccc21)N[C@@H](CO)C(=O)O 33

Here is the next molecule: COC(=O)[C@H](CO)NC(=O)CCN1c2ccccc2Sc2ccccc21 63

Here is the next molecule: COC(=O)[C@H](CCSC)NC(=O)CCN1c2ccccc2Sc2ccccc21 5

Here is the next molecule: COC(=O)[C@H](CCSC)NC(=O)CCn1c2ccccc2c2ccccc21 51

Here is the next molecule: CCOC(=O)[C@H](CSSC[C@H](NC(=O)CCN1c2ccccc2Sc2ccccc21)C(=O)OCC)NC(=O)CCN1c2ccccc2Sc2ccccc21 0

Here is the next molecule: COC(=O)[C@@H](NC(=O)CCn1c2ccccc2c2ccccc21)C(C)C 12

Here is the next molecule: CCOC(=O)[C@H](CS)NC(=O)CCN1c2ccccc2Sc2ccccc21 10

Here is the next molecule: CSCC[C@H](NC(=O)CCN1c2ccccc2Sc2ccccc21)C(=O)O 92

Here is the next molecule: CC(C)[C@H](NC(=O)CCN1c2ccccc2Sc2ccccc21)C(=O)O 76

###

- experimental.system: Protein farnesyltransferase (Homo sapiens, UniProt P49354+P49356)
- assay.notes: Inhibition of recombinant human FTase using FPP/dansyl-GCVLS as substrate measured for 15 mins by fluorimetric analysis
- Type: protein-complex assay
Returns: string. Value is Yes if measured IC50 is below 20 µM, and No if it is greater than or equal to it.

Please determine if O=C(CCn1c2ccccc2c2ccccc21)N[C@@H](CS)C(=O)O is below 20 µM in terms of IC50. No

Here is the next compound: CSCC[C@H](NC(=O)CCN1c2ccccc2Sc2ccccc21)C(=O)O Yes

Here is the next compound: CSCC[C@H](NC(=O)CCn1c2ccccc2c2ccccc21)C(=O)O No

Here is the next compound: O=C(CCN1c2ccccc2Sc2ccccc21)N[C@@H](CO)C(=O)O Yes

Here is the next compound: CSCC[C@H](NC(=O)CCN1c2ccccc2Sc2ccc(Cl)cc21)C(=O)O Yes

Here is the next compound: CC(C)[C@H](NC(=O)CCN1c2ccccc2Sc2ccccc21)C(=O)O No

Here is the next compound: O=C(CCN1c2ccccc2Sc2ccccc21)N[C@@H](CS)C(=O)O Yes
